Could you please report measured TGI for the items listed next?
- System: EKVX NSCLC
- protocol_details: NCI tumour cell line growth inhibition, 48 h

Give TGI for "Cc1cccc(C(=O)O)c1C(=O)c1cccc2ccccc12"
> 100 µM

Give me measured TGI, please, for this molecule: O=C(NNc1ccc(Cl)cc1)C1CCC(CNS(=O)(=O)c2ccccc2Cl)CC1 (stereo not given)
56.2 µM

Supply measured TGI of "CCCCCCCCOc1ccc(/C=C/C2=[N+](CCO)CCO2)cc1" in your reply.
14.9 µM

Note down TGI recorded for [N-]=[N+]=NCC(O)Cn1cnc2c(NC(=O)c3ccccc3)ncnc21 (stereo not given)
> 100 µM

In one line, give reported TGI of the entry "[N-]=[N+]=NCCCn1c2c(c3ccc([N+](=O)[O-])cc3c1=O)C(=O)c1cc(Br)ccc1-2" .
> 100 µM

Fill in reported TGI for this entry: "CCOC(=O)Nc1ccc(S(=O)(=O)Nn2cnnc2)cc1"
> 100 µM

Check the records and state TGI for "COC(=O)Nc1nc2ccccc2[nH]1"
> 100 µM

Let me know recorded TGI for "O=c1[nH]nc(Cc2ccc(Cl)cc2)n1/N=C/c1ccc([N+](=O)[O-])o1" , thanks.
13.8 µM

Let me know recorded TGI for CCCCCC(O)C(O)CCC[C@H](O)[C@H]1CC[C@H]([C@H]2CC[C@H]([C@H](O)CCCCCCCCCCCCC3=C[C@H](C)OC3=O)O2)O1 (stereo not given in full) , thanks.
26.4 µM

Supply recorded TGI for Cc1ccc(S(=O)(=O)NC(=O)C2=C3SCCN3C(=O)N(S(=O)(=O)c3ccc(C)cc3)C2c2ccccc2)cc1 (stereo not given) here.
> 100 µM

For the molecule "COc1cc2nc(-c3cccs3)nc(Nc3cccc(Cl)c3)c2cc1OC" , give its reported TGI.
> 100 µM

Recall and state the measured TGI for CCOC(=O)CCC(C(=O)OCC)n1nnc2cc(Nc3c(C)[n+]([O-])c4cc(F)c(OCC)cc4[n+]3[O-])ccc21 (stereo not given) .
> 100 µM

In one line, give reported TGI of the entry "CCCOC(=O)c1c(C)n(C)c2scc[n+]12" .
> 100 µM

Consider the molecule N#Cc1c(N)nc2c3c1NC(=O)C(C(N)=O)C3c1ccccc1O2 (stereo not given) . State its measured TGI.
> 100 µM

Using the record for "CCOC(=O)C1=C(O)c2ccc(C)cc2C(=O)C1=O" , state its measured TGI.
> 100 µM

====

- Tested on: HCC-2998 colon
- protocol_details: NCI tumour cell line growth inhibition, 48 h; in the data active = GI50 below about 0.43 µM; inactive = the rest
Pick one: Y (active), N (inactive)

Recorded test call requested for "CN=C1C=CC(=C(c2ccc(N(C)C)cc2)c2ccc(N(C)C)cc2)C=C1"
Y

Assay outcome for "CS(=O)(=O)c1ccc(Nc2nc(N[C@H]3CCCC[C@H]3N)nc3cc[nH]c(=O)c23)cc1" : what was it?
N

Hi, do you know how "CCCCC#Cc1c(I)n(C)c(=O)[nH]c1=O" came out in this test?
N

GET /call?item= O=C(NNc1ccc(Cl)cc1)C1CCC(CNS(=O)(=O)c2ccccc2Cl)CC1 (centres undefined) returns the recorded outcome of this test.
N

Please share the test call associated with "NC(=O)c1ccc(Oc2nccc(-c3c(-c4ccc(F)cc4)ncn3C3CCNCC3)n2)cc1" .
N

Tell me the recorded outcome of this test for "Cn1cc(C2=C(c3c[nH]c4ccccc34)C(=O)NC2=O)c2ccccc21" .
N

I'd appreciate the recorded outcome for "Clc1ccc(-c2c3ccc(=[N+]4CCCCC4)cc-3oc3cc(N4CCCCC4)ccc23)cc1" from this test.
Y

Called result for CC(=O)OC12C=C(C)C(C(C)C1)C1C(=O)N(CCN3CCCCC3)C(=O)C12 (centres undefined)
N

Hi team, can someone confirm the assay call for "Cc1ccc(-c2nc(/C=N/Nc3cc(C)nc4ccc(Cl)cc34)c(C)o2)cc1" ?
N

Cited source for all entries: PubChem BioAssay (NCI)
